system: HCV replicon cells Huh 9B; format: cell-based; conditions: Huh 9B replicon cells, 72 h, methylene blue, total cell area reduced by 50%
Experimental Endpoint: HCV TD50 Replicon (µM)
# unit: µM | format: bare number

Input: Can you look up the measured HCV TD50 Replicon of "CN(C)[C@@H](C(=O)N1CCOC[C@H]1c1ncc(-c2ccc(-c3ccc(C(=O)Nc4ccc(CN5CCS(=O)(=O)CC5)cc4)cc3)cc2)[nH]1)c1ccccc1" for me?
Output: 19.7

Input: Can you look up the measured HCV TD50 Replicon of "COC(=O)N[C@@H](C)C(=O)N1CCC[C@H]1c1ncc(-c2ccc(-c3ccc(C(=O)Nc4ccc(CN5CCS(=O)(=O)CC5)cc4)cc3)cc2)[nH]1" for me?
Output: 22.44

Input: Can you look up the measured HCV TD50 Replicon of "COC(=O)N[C@H](C(=O)N1CCC[C@H]1c1ncc(-c2ccc(-c3ccc(C(=O)Nc4ccc(CN5CCS(=O)(=O)CC5)cc4)cc3)cc2)[nH]1)C(C)(C)C" for me?
Output: 3.9

====

system: HCV replicon cells Huh 9B (genotype 1b); assay: 1b Replicon Assay (luciferase readout); format: cell-based; conditions: Hepatitis C virus; Huh 9B replicon cells, 72 h, luciferase activity; read-out: pIC50 1b Replicon (converted)
Experimental Endpoint: IC50 (nM)
# unit: nM | format: bare number

Input: Can you look up the measured IC50 of "COC(=O)N[C@H](C(=O)N1CCC[C@H]1c1ncc(-c2ccc(-c3ccc(C(=O)Nc4ccc(CN5CCS(=O)(=O)CC5)cc4)cc3)cc2)[nH]1)C(C)(C)C" for me?
Output: 0.741

Input: Can you look up the measured IC50 of "COC(=O)N[C@H](C(=O)N1CCC[C@H]1c1ncc(-c2ccc(-c3ccc(C(=O)Nc4ccc(CN5CCS(=O)(=O)CC5)cc4)cc3)cc2)[nH]1)c1ccccc1" for me?
Output: 0.0417

Input: Can you look up the measured IC50 of "COC(=O)N[C@H](C(=O)N1CCC[C@H]1c1ncc(-c2ccc(-c3ccc(C(=O)Nc4ccc(CN5CCS(=O)(=O)CC5)cc4)cc3)cc2)[nH]1)C(C)C" for me?
Output: 0.339

====

tested on: HCV replicon cells Huh 9B (genotype 1b); test: 1b Replicon Assay (luciferase readout); type: cell-based; conditions: Hepatitis C virus; Huh 9B replicon cells, 72 h, luciferase activity; read-out: pIC50 1b Replicon (converted)
Experimental Endpoint: IC50 (nM)
# unit: nM | format: bare number

Worked cases, answers included:
{"Test Smiles": "COC(=O)N[C@H](CO)C(=O)N1CCC[C@H]1c1ncc(-c2ccc(-c3ccc(C(=O)Nc4ccc(CN5CCS(=O)(=O)CC5)cc4)cc3)cc2)[nH]1", "Measured Value": 43.7}
{"Test Smiles": "COC(=O)N[C@@H](C)C(=O)N1CCC[C@H]1c1ncc(-c2ccc(-c3ccc(C(=O)Nc4ccc(CN5CCS(=O)(=O)CC5)cc4)cc3)cc2)[nH]1", "Measured Value": 1.17}
{"Test Smiles": "COC(=O)N[C@@H](C(=O)N1CCC[C@H]1c1ncc(-c2ccc(-c3ccc(C(=O)Nc4ccc(CN5CCS(=O)(=O)CC5)cc4)cc3)cc2)[nH]1)[C@H](C)O", "Measured Value": 126}

Okay, next one:
Input: Can you look up the measured IC50 of "CC(C)(C)OC(=O)N[C@H](C(=O)N1CCCC[C@H]1c1ncc(-c2ccc(-c3ccc(C(=O)Nc4ccc(CN5CCS(=O)(=O)CC5)cc4)cc3)cc2)[nH]1)c1ccccc1" for me?
Output: 0.407
